# study.target: human GPR120 (Homo sapiens, UniProt Q5NUL3)
# Construct: host or cells: HEK293 cells co-expressing Gqi5
# Sequence (Q5NUL3 whole entry): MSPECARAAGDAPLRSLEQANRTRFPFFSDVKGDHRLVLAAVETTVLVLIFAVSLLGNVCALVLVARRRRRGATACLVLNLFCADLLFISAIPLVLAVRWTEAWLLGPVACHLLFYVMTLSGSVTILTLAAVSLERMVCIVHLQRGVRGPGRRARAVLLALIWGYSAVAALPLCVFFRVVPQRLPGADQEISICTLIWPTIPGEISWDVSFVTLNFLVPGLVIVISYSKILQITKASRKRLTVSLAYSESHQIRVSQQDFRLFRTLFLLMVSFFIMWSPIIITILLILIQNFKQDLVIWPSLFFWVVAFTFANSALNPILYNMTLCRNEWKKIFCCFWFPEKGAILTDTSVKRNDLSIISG
# assay.method.text: Intracellular Ca2+ assay in human GPR120 stable cell line (FLIPR Calcium 4 dye, Flexstation)
# Type: cell-based
# condition.notes: HEK293, % activity at 2.5 µM compared to the maximal activity of the compound of Example 25 at 2.5 µM (=100%); HEK293 cells co-expressing Gqi5; read-out: % Activity (Ex. 25 Reference Compound)
property.label: activity at 2.5 µM
Field: value (include unit after the number)

>  <compound>
CC1(C)Cc2cc(F)cc(COc3ccc(CCC(=O)O)c(Cl)c3)c2O1

>  <property.label>
activity at 2.5 µM

>  <reported.measurement>
111%

$$$$
>  <compound>
CC(Cc1cccc(OCc2cc(Cl)cc3c2OC(C)(C)C3)c1)C(=O)O (centres unmarked)

>  <property.label>
activity at 2.5 µM

>  <reported.measurement>
61.1%

$$$$
>  <compound>
CC(Cc1cc(F)c(OCc2cc(Cl)cc3c2OC(C)C3(C)C)c(F)c1)C(=O)O (centres unmarked)

>  <property.label>
activity at 2.5 µM

>  <reported.measurement>
72.4%

$$$$
>  <compound>
CC1(C)Cc2cc(F)cc(COc3ccc(C4CC4C(=O)O)cc3)c2O1 (centres unmarked) [Example 131A]

>  <property.label>
activity at 2.5 µM

>  <reported.measurement>
104%

$$$$
>  <compound>
CC(Cc1ccc(OCc2cc(Cl)cc3c2OC(C)(C)C3=O)c(F)c1)C(=O)O (centres unmarked)

>  <property.label>
activity at 2.5 µM

>  <reported.measurement>
110%

$$$$
>  <compound>
CC1(C)Cc2cc(Cl)cc(COc3cc(F)c(CCC(=O)O)c(F)c3)c2O1

>  <property.label>
activity at 2.5 µM

>  <reported.measurement>
139%

$$$$

Inquiry: Would you mind telling me what activity at 2.5 µM value was observed for CC(Cc1ccc(OCc2cc(Cl)cc3c2OC(C)(C)C3)c(CN(C)C)c1)C(=O)O (centres unmarked) ?
Reply text: 119%

Inquiry: Would you mind telling me what activity at 2.5 µM value was observed for CC1(C)Cc2cc(Cl)cc(COc3ccc(SCC(=O)O)cc3)c2O1 ?
Reply text: 118%

Inquiry: Would you mind telling me what activity at 2.5 µM value was observed for CCN(CC)c1cc(COc2ccc(CC(C)C(=O)O)cc2)c2c(c1)CC(C)(C)O2 (centres unmarked) ?
Reply text: 82.3%

Inquiry: Would you mind telling me what activity at 2.5 µM value was observed for CCOC(Cc1cc(F)c(OCc2cc(F)cc3c2OC(C)(C)C3)c(F)c1)C(=O)O (centres unmarked) ?
Reply text: 78.5%

Inquiry: Would you mind telling me what activity at 2.5 µM value was observed for CC(Cc1ccc(OCc2cc(F)cc3c2OCOC3)cc1)C(=O)O (centres unmarked) ?
Reply text: 79.6%

Inquiry: Would you mind telling me what activity at 2.5 µM value was observed for COc1cc(CCC(=O)O)ccc1OCc1cc(F)cc2c1OC(C)(C)C2 ?
Reply text: 159%

Inquiry: Would you mind telling me what activity at 2.5 µM value was observed for Cc1cc(CCC(=O)O)c(C)c(C)c1OCc1cc(F)cc2c1OC(C)(C)C2 ?
Reply text: 146%

Inquiry: Would you mind telling me what activity at 2.5 µM value was observed for CC1(C)Cc2cc(F)cc(COc3ccc4cc(C(=O)O)ccc4c3)c2O1 ?
Reply text: 124%

Inquiry: Would you mind telling me what activity at 2.5 µM value was observed for C[C@H](Cc1ccc(OCc2cc(F)cc3c2OC(C)(C)C3)cc1)C(=O)O ?
Reply text: 141%
